Experiment: RP, Thermo Scientific Acclaim RSLC 120 C18, 100 × 2.1 mm, 2.2 µm, 30 °C, 0.2 mL/min, estimated dead time 1.1 min; A: 90% water + 10% methanol + 0.01% formic acid + 5 mM ammonium formate, pH 3.61; B: methanol + 0.01% formic acid + 5 mM ammonium formate, pH 3.61; gradient (min/%B) 0/1 1/1 2/39 13/99.9 15/99.9 15.1/1 20.1/1
Settings: stereoisomer not certain
Kind request: treat 9 min as inclusive, so LC retention time at 9 min or higher is Met, anything lower is Not met.

COc1ccc(CCN(C)CCCC(C#N)(c2cc(OC)c(OC)c(OC)c2)C(C)C)cc1OC (stereo unspecified) [Gallopamil] : Not met
CN1CCc2cccc3c2C1Cc1ccc(O)c(O)c1-3 (stereo unspecified) [Apomorphine] : Not met
O=C1c2ccccc2C(=O)C1C(=O)C(c1ccccc1)c1ccccc1 [Diphacinone] : Not met
O=C(Nc1cccc(C2=NCCN2)c1)Nc1cccc(C2=NCCN2)c1 [Imidocarb] : Not met
Cc1nccn1CC1CCc2c(c3ccccc3n2C)C1=O (stereo unspecified) [Ondansetron] : Not met
CCOC(=O)NCCOc1ccc(Oc2ccccc2)cc1 [Fenoxycarb] : Met
CNC(=O)C(=NOC)c1ccccc1COc1cc(C)ccc1C [Dimoxystrobin] : Met
CCCOP(=S)(OCCC)OP(=S)(OCCC)OCCC [Aspon] : Met

Would you say CCOP(=S)(OCC)Oc1ccc(S(C)=O)cc1 (stereo unspecified) [Fensulfothion] shows LC retention time at minimum 9 min?
Not met

Would you say CCOP(=S)(OCC)Oc1cc(Cl)c(Br)cc1Cl [Bromophos-ethyl] shows LC retention time at minimum 9 min?
Met

Would you say O=C(NC12CC3CC(CC(C3)C1)C2)c1nn(Cc2ccc(F)cc2)c2ccccc12 [FUB-AKB48] shows LC retention time at minimum 9 min?
Met

Would you say CN(C)CCN1c2ccccc2Sc2ccc(Cl)cc21 [Chlorphenethazine] shows LC retention time at minimum 9 min?
Not met

Would you say CN(C)c1ccc(C(=C2C=CC(=[N+](C)C)C=C2)c2ccccc2)cc1 [Malachite green (MG)] shows LC retention time at minimum 9 min?
Not met

Would you say Cc1c(C(=O)c2cccc3ccccc23)c2cccc3c2n1C(CN1CCOCC1)CO3 (stereo unspecified) [WIN-55-212-2] shows LC retention time at minimum 9 min?
Met

Would you say CCCOCC(=Nc1ccc(Cl)cc1C(F)(F)F)n1ccnc1 [Triflumizole] shows LC retention time at minimum 9 min?
Met

Would you say Cc1cccc(C)c1NC(=O)c1cc(S(N)(=O)=O)c(Cl)cc1O [Xipamide] shows LC retention time at minimum 9 min?
Not met

Would you say Cc1cc(C2CC2)nc(Nc2ccccc2)n1 [Cyprodinil] shows LC retention time at minimum 9 min?
Met

Origin of measurements: the RepoRT retention time repository (doi:10.1021/acs.analchem.2c02893)
